Each record here notes measured Percentage phytotoxicity P197S-W574L 14 DAA.
# Test system: oilseed rape comprising a P197S mutation on ALS I and a W574L mutation on ALS III (P197S-W574L)
# assay-protocol: Field trial, visible phytotoxicity (Table 2)
# Assay type: in vivo, Brassica napus
# study-conditions: applied at BBCH 14, 200 L/ha water, g ai/ha: Foramsulfuron 25, TCM 15, Iodosulfuron 7, Mesosulfuron 60, Amidosulfuron 30, Ethoxysulfuron 60, Imazamox 40, Metosulam 30, Bispyribac 50, Nicosulfuron 60, Metsulfuron 8, Propoxycarbazone 70, Pyroxsulam 50, Tribenuron 30, Rimsulfuron 12.5, Flucarbazone 40, Thifensulfuron 7.5
metric-name: Percentage phytotoxicity P197S-W574L 14 DAA

compound: COc1nn(C(=O)[N-]S(=O)(=O)c2ccccc2OC(F)(F)F)c(=O)n1C.[Na+] [Flucarbazone, flucarbazone-sodium]
endpoint-result: 6%
--
compound: COC(=O)c1csc(C)c1S(=O)(=O)NC(=O)n1nc(OC)n(C)c1=O [TCM, thiencarbazone-methyl]
endpoint-result: 13%
--
compound: COC(=O)c1ccccc1S(=O)(=O)NC(=O)Nc1nc(C)nc(OC)n1 [Metsulfuron, metsulfuron-methyl]
endpoint-result: 50%
--
compound: COC(=O)c1ccc(CNS(C)(=O)=O)cc1S(=O)(=O)NC(=O)Nc1nc(OC)cc(OC)n1 [Mesosulfuron, mesosulfuron-methyl]
endpoint-result: 40%
--
compound: CCCOc1nn(C(=O)[N-]S(=O)(=O)c2ccccc2C(=O)OC)c(=O)n1C.[Na+] [Propoxycarbazone, propoxycarbazone-sodium]
endpoint-result: 52%
--
compound: COc1cc(OC)n2nc(NS(=O)(=O)c3c(C(F)(F)F)ccnc3OC)nc2n1 [Pyroxsulam, pyroxsulam]
endpoint-result: 16%
